molecular target: DB_S201A (human, UniProt P03372 176-250, S201A); assay: ITC
Sequence (P03372 176-250 S201A): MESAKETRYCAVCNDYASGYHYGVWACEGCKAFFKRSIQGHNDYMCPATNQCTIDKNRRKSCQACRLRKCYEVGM
property_measured: pKd
Answers are plain numbers, as −log10 of the molar value.

Report pKd for ERE duplex (dsDNA) DNA 1: CCCAGGTCACAGTGACCTGCG DNA 2: CGCAGGTCACTGTGACCTGGG please.
6.92
